B1: library; a variant is named by its letters at N, in order (parent)
chain: GCUGUCACCGAGAAACUGUGAAGUAUAUCUUAAACCUGGGCACUUAAAAGAUAUAUGGAGUUAGUAGUGCAACCUGCUCGGUCUGAUGAGUCCNNNNNNGGACGAAACAGC

Variants of: B1
ASSAY TEXT: FACS-Seq fitted mean relative fluorescence mCherry/BFP without ligand (log10 relative fluorescence); HEK293T; ligand: cyclic di-GMP (c-di-GMP-II aptamer); higher = higher reporter protein expression
CONDITION DESCRIPTION: ligand present: no
MEASURED METRIC: FACS-Seq fitted mean (log10)

**Query** State the recorded FACS-Seq fitted mean (log10) for this entry: GCUGUCACCGAGAAACUGUGAAGUAUAUCUUAAACCUGGGCACUUAAAAGAUAUAUGGAGUUAGUAGUGCAACCUGCUCGGUCUGAUGAGUCCUGAAAUGGACGAAACAGC [UGAAAU]
**Result** -0.0172

**Query** One more variant: GCUGUCACCGAGAAACUGUGAAGUAUAUCUUAAACCUGGGCACUUAAAAGAUAUAUGGAGUUAGUAGUGCAACCUGCUCGGUCUGAUGAGUCCAAGCAAGGACGAAACAGC [AAGCAA]
**Result** -0.642

**Query** Now the variant GCUGUCACCGAGAAACUGUGAAGUAUAUCUUAAACCUGGGCACUUAAAAGAUAUAUGGAGUUAGUAGUGCAACCUGCUCGGUCUGAUGAGUCCGUGGCCGGACGAAACAGC [GUGGCC]
**Result** 0.168

**Query** Entry to check: GCUGUCACCGAGAAACUGUGAAGUAUAUCUUAAACCUGGGCACUUAAAAGAUAUAUGGAGUUAGUAGUGCAACCUGCUCGGUCUGAUGAGUCCUCAGCGGGACGAAACAGC [UCAGCG]
**Result** -0.403

**Query** What would you report for GCUGUCACCGAGAAACUGUGAAGUAUAUCUUAAACCUGGGCACUUAAAAGAUAUAUGGAGUUAGUAGUGCAACCUGCUCGGUCUGAUGAGUCCGUAUUGGGACGAAACAGC [GUAUUG] ?
**Result** -0.534

**Query** Item: GCUGUCACCGAGAAACUGUGAAGUAUAUCUUAAACCUGGGCACUUAAAAGAUAUAUGGAGUUAGUAGUGCAACCUGCUCGGUCUGAUGAGUCCACAUACGGACGAAACAGC [ACAUAC]
**Result** -0.256

**Query** Try the variant GCUGUCACCGAGAAACUGUGAAGUAUAUCUUAAACCUGGGCACUUAAAAGAUAUAUGGAGUUAGUAGUGCAACCUGCUCGGUCUGAUGAGUCCGUAGGAGGACGAAACAGC [GUAGGA]
**Result** -0.422

**Query** Please do the same for GCUGUCACCGAGAAACUGUGAAGUAUAUCUUAAACCUGGGCACUUAAAAGAUAUAUGGAGUUAGUAGUGCAACCUGCUCGGUCUGAUGAGUCCUUUGUAGGACGAAACAGC [UUUGUA] as well.
**Result** -0.543

**Query** Lookup GCUGUCACCGAGAAACUGUGAAGUAUAUCUUAAACCUGGGCACUUAAAAGAUAUAUGGAGUUAGUAGUGCAACCUGCUCGGUCUGAUGAGUCCGUAGAGGGACGAAACAGC [GUAGAG]
**Result** 0.0274

**Query** Do the same for GCUGUCACCGAGAAACUGUGAAGUAUAUCUUAAACCUGGGCACUUAAAAGAUAUAUGGAGUUAGUAGUGCAACCUGCUCGGUCUGAUGAGUCCCUCCGUGGACGAAACAGC [CUCCGU] please
**Result** 0.15

**Query** Param item: GCUGUCACCGAGAAACUGUGAAGUAUAUCUUAAACCUGGGCACUUAAAAGAUAUAUGGAGUUAGUAGUGCAACCUGCUCGGUCUGAUGAGUCCUUAUAUGGACGAAACAGC [UUAUAU]
**Result** -0.127

**Query** Ok, now GCUGUCACCGAGAAACUGUGAAGUAUAUCUUAAACCUGGGCACUUAAAAGAUAUAUGGAGUUAGUAGUGCAACCUGCUCGGUCUGAUGAGUCCCGUCUAGGACGAAACAGC [CGUCUA]
**Result** -0.152

**Query** Try this variant too: GCUGUCACCGAGAAACUGUGAAGUAUAUCUUAAACCUGGGCACUUAAAAGAUAUAUGGAGUUAGUAGUGCAACCUGCUCGGUCUGAUGAGUCCGUAAGGGGACGAAACAGC [GUAAGG]
**Result** -0.295

**Query** Subsequent entry: GCUGUCACCGAGAAACUGUGAAGUAUAUCUUAAACCUGGGCACUUAAAAGAUAUAUGGAGUUAGUAGUGCAACCUGCUCGGUCUGAUGAGUCCUGAACGGGACGAAACAGC [UGAACG]
**Result** -0.401

**Query** // same read-out, input: GCUGUCACCGAGAAACUGUGAAGUAUAUCUUAAACCUGGGCACUUAAAAGAUAUAUGGAGUUAGUAGUGCAACCUGCUCGGUCUGAUGAGUCCGUGAAAGGACGAAACAGC [GUGAAA]
**Result** -0.574

**Query** Would you mind doing GCUGUCACCGAGAAACUGUGAAGUAUAUCUUAAACCUGGGCACUUAAAAGAUAUAUGGAGUUAGUAGUGCAACCUGCUCGGUCUGAUGAGUCCCCCGGUGGACGAAACAGC [CCCGGU] as well?
**Result** -0.55

**Query** Subsequent entry: GCUGUCACCGAGAAACUGUGAAGUAUAUCUUAAACCUGGGCACUUAAAAGAUAUAUGGAGUUAGUAGUGCAACCUGCUCGGUCUGAUGAGUCCUAUGUAGGACGAAACAGC [UAUGUA]
**Result** -0.622

**Query** And then GCUGUCACCGAGAAACUGUGAAGUAUAUCUUAAACCUGGGCACUUAAAAGAUAUAUGGAGUUAGUAGUGCAACCUGCUCGGUCUGAUGAGUCCUAACUCGGACGAAACAGC [UAACUC] , what is it?
**Result** -0.459

**Query** What do we get for GCUGUCACCGAGAAACUGUGAAGUAUAUCUUAAACCUGGGCACUUAAAAGAUAUAUGGAGUUAGUAGUGCAACCUGCUCGGUCUGAUGAGUCCGUUAGAGGACGAAACAGC [GUUAGA] ?
**Result** -0.409

**Query** Entry GCUGUCACCGAGAAACUGUGAAGUAUAUCUUAAACCUGGGCACUUAAAAGAUAUAUGGAGUUAGUAGUGCAACCUGCUCGGUCUGAUGAGUCCCGAGAUGGACGAAACAGC [CGAGAU] please
**Result** -0.412

**Query** What about this variant? GCUGUCACCGAGAAACUGUGAAGUAUAUCUUAAACCUGGGCACUUAAAAGAUAUAUGGAGUUAGUAGUGCAACCUGCUCGGUCUGAUGAGUCCCUAGACGGACGAAACAGC [CUAGAC]
**Result** -0.239

**Query** Further, for GCUGUCACCGAGAAACUGUGAAGUAUAUCUUAAACCUGGGCACUUAAAAGAUAUAUGGAGUUAGUAGUGCAACCUGCUCGGUCUGAUGAGUCCCGGAUUGGACGAAACAGC [CGGAUU] ?
**Result** -0.623

**Query** And GCUGUCACCGAGAAACUGUGAAGUAUAUCUUAAACCUGGGCACUUAAAAGAUAUAUGGAGUUAGUAGUGCAACCUGCUCGGUCUGAUGAGUCCGUGAUGGGACGAAACAGC [GUGAUG] ?
**Result** -0.401

**Query** Now consider GCUGUCACCGAGAAACUGUGAAGUAUAUCUUAAACCUGGGCACUUAAAAGAUAUAUGGAGUUAGUAGUGCAACCUGCUCGGUCUGAUGAGUCCGAGUUAGGACGAAACAGC [GAGUUA] .
**Result** -0.199

**Query** Follow-up item: GCUGUCACCGAGAAACUGUGAAGUAUAUCUUAAACCUGGGCACUUAAAAGAUAUAUGGAGUUAGUAGUGCAACCUGCUCGGUCUGAUGAGUCCCCAUUGGGACGAAACAGC [CCAUUG]
**Result** -0.474

**Query** Another: GCUGUCACCGAGAAACUGUGAAGUAUAUCUUAAACCUGGGCACUUAAAAGAUAUAUGGAGUUAGUAGUGCAACCUGCUCGGUCUGAUGAGUCCAAACAAGGACGAAACAGC [AAACAA]
**Result** -0.921

**Query** Moving on to the next variant: GCUGUCACCGAGAAACUGUGAAGUAUAUCUUAAACCUGGGCACUUAAAAGAUAUAUGGAGUUAGUAGUGCAACCUGCUCGGUCUGAUGAGUCCGUGAUCGGACGAAACAGC [GUGAUC]
**Result** -0.464

**Query** Same question for GCUGUCACCGAGAAACUGUGAAGUAUAUCUUAAACCUGGGCACUUAAAAGAUAUAUGGAGUUAGUAGUGCAACCUGCUCGGUCUGAUGAGUCCACAAGCGGACGAAACAGC [ACAAGC] please.
**Result** -0.263

**Query** Next entry: GCUGUCACCGAGAAACUGUGAAGUAUAUCUUAAACCUGGGCACUUAAAAGAUAUAUGGAGUUAGUAGUGCAACCUGCUCGGUCUGAUGAGUCCAGAUGCGGACGAAACAGC [AGAUGC]
**Result** -0.763

**Query** Here is the next variant: GCUGUCACCGAGAAACUGUGAAGUAUAUCUUAAACCUGGGCACUUAAAAGAUAUAUGGAGUUAGUAGUGCAACCUGCUCGGUCUGAUGAGUCCGAAGAUGGACGAAACAGC [GAAGAU]
**Result** -0.28

**Query** Record: GCUGUCACCGAGAAACUGUGAAGUAUAUCUUAAACCUGGGCACUUAAAAGAUAUAUGGAGUUAGUAGUGCAACCUGCUCGGUCUGAUGAGUCCCAUAAAGGACGAAACAGC [CAUAAA]
**Result** -0.673

**Query** Please do the same for GCUGUCACCGAGAAACUGUGAAGUAUAUCUUAAACCUGGGCACUUAAAAGAUAUAUGGAGUUAGUAGUGCAACCUGCUCGGUCUGAUGAGUCCAAAAUGGGACGAAACAGC [AAAAUG] as well.
**Result** -0.0352

**Query** Now this one: GCUGUCACCGAGAAACUGUGAAGUAUAUCUUAAACCUGGGCACUUAAAAGAUAUAUGGAGUUAGUAGUGCAACCUGCUCGGUCUGAUGAGUCCCCGUUGGGACGAAACAGC [CCGUUG]
**Result** -0.483

**Query** Same thing, different variant: GCUGUCACCGAGAAACUGUGAAGUAUAUCUUAAACCUGGGCACUUAAAAGAUAUAUGGAGUUAGUAGUGCAACCUGCUCGGUCUGAUGAGUCCCGAAGAGGACGAAACAGC [CGAAGA]
**Result** -0.381

**Query** Follow-up entry: GCUGUCACCGAGAAACUGUGAAGUAUAUCUUAAACCUGGGCACUUAAAAGAUAUAUGGAGUUAGUAGUGCAACCUGCUCGGUCUGAUGAGUCCACGCUCGGACGAAACAGC [ACGCUC]
**Result** -0.914

**Query** And for GCUGUCACCGAGAAACUGUGAAGUAUAUCUUAAACCUGGGCACUUAAAAGAUAUAUGGAGUUAGUAGUGCAACCUGCUCGGUCUGAUGAGUCCGAAGCGGGACGAAACAGC [GAAGCG] ?
**Result** -0.36

Data origin, for the record: the supplement of paper PMC6757056
